We begin with a simple list: items and their reported phospho-S6 immunofluorescence (z-score).
Test system: MDA-MB-468
Assay: phospho-S6 immunofluorescence (DAPI-normalised), per-plate z-score; higher = higher phospho-S6 signal (less pathway suppression)
Settings: co-treatment: vehicle; 24 h
Where a name gives a salt, the structure may show the parent alone.
Form field (numeric): enter value without unit.

Worked cases, phospho-S6 immunofluorescence (z-score) given:
Request: Need phospho-S6 immunofluorescence (z-score) of Cc1nc2c([nH]1)-c1ccccc1N(C(=O)c1ccc(NC(=O)c3ccccc3-c3ccccc3)cc1)CC2 [Conivaptan (hydrochloride)] (compound 10 µM) , thanks.
Result: 0.94

Request: Need phospho-S6 immunofluorescence (z-score) of COc1ccc2c(c1OC)C(=O)O[C@@H]2[C@H]1c2c(cc3c(c2OC)OCO3)CCN1C [Noscapine] (compound 10 µM) , thanks.
Result: 0.47

Further cases:
Request: Need phospho-S6 immunofluorescence (z-score) of CNS(=O)(=O)CCc1ccc2[nH]cc(C3CCN(C)CC3)c2c1 [Naratriptan (hydrochloride)] (compound 10 µM) , thanks.
Result: 0.18

These data points were gathered from the supplement of paper PMC7411640.
